Measured values drawn from PubChem BioAssay (NCI) for this set.

# System: MDA-MB-231 breast
# assay notes: NCI tumour cell line growth inhibition, 48 h; in the data active = GI50 below about 0.43 µM; inactive = the rest
Labels: true (active), false (inactive)

{"molecule": "CNC(=O)c1c(NC(=O)c2ccc(C(C)(C)C)cc2)sc2c1CCC(=O)C2", "category label": "true"}
{"molecule": "COc1cccc(CC(C)=C(c2ccc(OCCN3CCCCC3)cc2)c2ccc(OCCN3CCCCC3)cc2)c1", "category label": "false"}
{"molecule": "COc1ccc2c(c1OC)CO[C@@H]2[C@H]1c2c(cc3c(c2OC)OCO3)CCN1S(=O)(=O)c1cn(C)cn1", "category label": "false"}
{"molecule": "CCC(C)Nc1ccc(N)cc1 (centres undefined)", "category label": "false"}
{"molecule": "COc1ncc(Nc2ncc([C@@H](C)N3CCN(S(C)(=O)=O)CC3)cc2-c2nc(C)nc(N)n2)cc1F", "category label": "false"}
{"molecule": "COc1ccc(C/C(=C(\\C)c2ccc(OCCN3CCCC3)cc2)c2ccc(OCCN3CCCC3)cc2)cc1", "category label": "false"}
{"molecule": "Cn1cc(-c2ccc3cc(-c4ccc(CC(=O)Nc5cc(C(C)(C)C)on5)cc4)cnc3c2)cn1", "category label": "false"}
{"molecule": "NC(=O)c1cc([N+](=O)[O-])c(Cl)c([N+](=O)[O-])c1Cl", "category label": "false"}
{"molecule": "CCCCCCCCCCCCCCCCCCn1cc[n+](C)c1", "category label": "false"}
